System: Bacillus subtilis PCI219
Assay: MIC, standard serial dilution method
Format: cell-based
Settings: PCI219, pH 7, read-out: MIC
READOUT: MIC

compound="NC[C@@H](F)[C@H](O)C(=O)N[C@@H]1C[C@H](N)[C@@H](O[C@H]2O[C@H](CN)[C@@H](O)C[C@H]2N)[C@H](O)[C@H]1O[C@H]1O[C@H](CO)[C@@H](O)[C@H](N)[C@H]1O [Invention Compound No. 6]" readout=MIC test_value="0.2 µg/mL"

// below: MIC requested for another compound
### Prompt Which measured MIC belongs to NC[C@@H](F)[C@H](O)C(=O)N[C@@H]1C[C@H](N)[C@@H](O[C@H]2O[C@H](CN)[C@@H](O)[C@H](O)[C@H]2O)[C@H](O)[C@H]1O[C@H]1O[C@H](CO)[C@@H](O)[C@H](N)[C@H]1O [Invention Compound No. 1] , tested on Bacillus subtilis PCI219?
### Response 0.78 µg/mL

====

Tested on: Escherichia coli JR 225
Quick list: MIC per entry.
Give your result in µg/mL as a bare value.

Please review the following examples before continuing.
compound=NC[C@@H](F)[C@H](O)C(=O)N[C@@H]1C[C@H](N)[C@@H](O[C@H]2O[C@H](CN)[C@@H](O)[C@H](O)[C@H]2N)[C@H](O)[C@H]1O[C@H]1O[C@H](CO)[C@@H](O)[C@H](N)[C@H]1O readout=MIC test_value=0.39
compound="NCC[C@H](O)C(=O)N[C@@H]1C[C@H](N)[C@@H](O[C@H]2O[C@H](CN)[C@@H](O)[C@H](O)[C@H]2O)[C@H](O)[C@H]1O[C@H]1O[C@H](CO)[C@@H](O)[C@H](N)[C@H]1O [Amikacin, reference compound]" readout=MIC test_value=0.78
compound=NC[C@@H]1CC[C@@H](N)[C@@H](O[C@H]2[C@H](O)[C@@H](O[C@H]3O[C@H](CO)[C@@H](O)[C@H](N)[C@H]3O)[C@H](NC(=O)[C@@H](O)[C@H](F)CN)C[C@@H]2N)O1 readout=MIC test_value=0.78

// switching to the query compound
### Prompt Consider the compound shown here: NC[C@@H](F)[C@H](O)C(=O)N[C@@H]1C[C@H](N)[C@@H](O[C@H]2O[C@H](CN)[C@@H](O)[C@H](O)[C@H]2O)[C@H](F)[C@H]1O[C@H]1O[C@H](CO)[C@@H](O)[C@H](N)[C@H]1O What is its recorded MIC?
### Response 0.39

====

The entries below are paired with their reported MIC.
System: Escherichia coli K-12 R5
Numbers only here, please. The scale is µg/mL.

Some solved entries appear below for comparison.
compound=NC[C@@H](F)[C@H](O)C(=O)N[C@@H]1C[C@H](N)[C@@H](O[C@H]2O[C@H](CN)[C@@H](O)C[C@H]2N)[C@H](O)[C@H]1O[C@H]1O[C@H](CO)[C@@H](O)[C@H](N)[C@H]1O readout=MIC unit_label=µg/mL test_value=3.12
compound="NCC[C@H](O)C(=O)N[C@@H]1C[C@H](N)[C@@H](O[C@H]2O[C@H](CN)CC[C@H]2N)[C@H](O)[C@H]1O[C@H]1O[C@H](CO)[C@@H](O)[C@H](N)[C@H]1O [Habekacin, reference compound]" readout=MIC unit_label=µg/mL test_value=25

### Prompt Look up MIC with Escherichia coli K-12 R5 for this compound: NC[C@@H](F)[C@H](O)C(=O)N[C@@H]1C[C@H](N)[C@@H](O[C@@H]2CC[C@H](O)[C@@H](CN)O2)[C@H](O)[C@H]1O[C@H]1O[C@H](CO)[C@@H](O)[C@H](N)[C@H]1O
### Response 6.25

### Prompt Field: MIC (Escherichia coli K-12 R5). Entry: NCC[C@H](O)C(=O)N[C@@H]1C[C@H](N)[C@@H](O[C@H]2O[C@H](CN)[C@@H](O)[C@H](O)[C@H]2O)[C@H](O)[C@H]1O[C@H]1O[C@H](CO)[C@@H](O)[C@H](N)[C@H]1O [Amikacin, reference compound]
### Response 25

====

Test system: Bacillus subtilis PCI219
Assay: MIC, standard serial dilution method
Type: cell-based
Conditions: PCI219, pH 7, read-out: MIC
READOUT: MIC (µg/mL)
Give a bare numeral; the unit µg/mL is implied.

smiles_str=NC[C@@H](F)[C@H](O)C(=O)N[C@@H]1C[C@H](N)[C@@H](O[C@H]2O[C@H](CN)[C@@H](O)[C@H](O)[C@H]2N)[C@H](F)[C@H]1O[C@H]1O[C@H](CO)[C@@H](O)[C@H](N)[C@H]1O assay_system="Bacillus subtilis PCI219" readout=MIC test_value=0.39

We next turn to a different compound, shown below.
### Prompt Any idea what MIC was measured for NC[C@@H](F)[C@H](O)C(=O)N[C@@H]1C[C@H](N)[C@@H](O[C@H]2O[C@H](CN)[C@@H](O)[C@H](O)[C@H]2O)[C@H](F)[C@H]1O[C@H]1O[C@H](CO)[C@@H](O)[C@H](N)[C@H]1O ?
### Response 3.12

====

The entries below are paired with their reported MIC.
Test system: Escherichia coli K-12 ML 1629
Experiment: MIC, standard serial dilution method
Assay type: cell-based
Conditions: K12ML1629, pH 7, read-out: MIC
Write the value in µg/mL as a bare number.

Recorded results for 3 molecules are shown here.
molecule="NC[C@@H](F)[C@H](O)C(=O)N[C@@H]1C[C@H](N)[C@@H](O[C@@H]2CC[C@H](O)[C@@H](CN)O2)[C@H](O)[C@H]1O[C@H]1O[C@H](CO)[C@@H](O)[C@H](N)[C@H]1O [Invention Compound No. 2]" test_value=0.78
molecule="NC[C@@H]1CC[C@@H](N)[C@@H](O[C@H]2[C@H](F)[C@@H](O[C@H]3O[C@H](CO)[C@@H](O)[C@H](N)[C@H]3O)[C@H](NC(=O)[C@@H](O)[C@H](F)CN)C[C@@H]2N)O1 [Invention Compound No. 10]" test_value=0.39
molecule="NC[C@@H](F)[C@H](O)C(=O)N[C@@H]1C[C@H](N)[C@@H](O[C@H]2O[C@H](CN)[C@@H](O)[C@H](O)[C@H]2N)[C@H](O)[C@H]1O[C@H]1O[C@H](CO)[C@@H](O)[C@H](N)[C@H]1O [Invention Compound No. 5]" test_value=0.78

Turning to the following molecule.
### Prompt What measured MIC goes with NC[C@@H](F)[C@H](O)C(=O)N[C@@H]1C[C@H](N)[C@@H](O[C@H]2O[C@H](CN)[C@@H](O)C[C@H]2N)[C@H](F)[C@H]1O[C@H]1O[C@H](CO)[C@@H](O)[C@H](N)[C@H]1O [Invention Compound No. 9] ?
### Response 0.78

====

// values below are reported MIC
System: Escherichia coli JR 225
Respond with the bare value in µg/mL.

Here's what some known entries look like.
compound=NC[C@@H](F)[C@H](O)C(=O)N[C@@H]1C[C@H](N)[C@@H](O[C@H]2O[C@H](CN)[C@@H](O)[C@H](O)[C@H]2N)[C@H](F)[C@H]1O[C@H]1O[C@H](CO)[C@@H](O)[C@H](N)[C@H]1O test_value=0.2
compound="NCC[C@H](O)C(=O)N[C@@H]1C[C@H](N)[C@@H](O[C@H]2O[C@H](CN)CC[C@H]2N)[C@H](O)[C@H]1O[C@H]1O[C@H](CO)[C@@H](O)[C@H](N)[C@H]1O [Habekacin, reference compound]" test_value=0.78
compound=NC[C@@H](F)[C@H](O)C(=O)N[C@@H]1C[C@H](N)[C@@H](O[C@H]2O[C@H](CN)[C@@H](O)C[C@H]2F)[C@H](O)[C@H]1O[C@H]1O[C@H](CO)[C@@H](O)[C@H](N)[C@H]1O test_value=0.39

### Prompt // fetch Escherichia coli JR 225 MIC for NC[C@@H](F)[C@H](O)C(=O)N[C@@H]1C[C@H](N)[C@@H](O[C@H]2O[C@H](CN)[C@@H](O)C[C@H]2N)[C@H](F)[C@H]1O[C@H]1O[C@H](CO)[C@@H](O)[C@H](N)[C@H]1O
### Response 0.2

====

System: Escherichia coli K-12 ML 1629
Assay: MIC, standard serial dilution method
Format: cell-based
Details: K12ML1629, pH 7, read-out: MIC
The reader will find reported MIC values listed item by item below.
Enter your answer as a number in mg/L; do not include the unit.

molecule="NC[C@@H]1CC[C@@H](N)[C@@H](O[C@H]2[C@H](O)[C@@H](O[C@H]3O[C@H](CO)[C@@H](O)[C@H](N)[C@H]3O)[C@H](NC(=O)[C@@H](O)[C@H](F)CN)C[C@@H]2N)O1 [Invention Compound No. 7]" test_value=0.78
molecule="NC[C@@H](F)[C@H](O)C(=O)N[C@@H]1C[C@H](N)[C@@H](O[C@H]2O[C@H](CN)[C@@H](O)C[C@H]2N)[C@H](O)[C@H]1O[C@H]1O[C@H](CO)[C@@H](O)[C@H](N)[C@H]1O [Invention Compound No. 6]" test_value=0.78

Kindly review the next molecule as well.
### Prompt I would be grateful if you could share the reported MIC for NCC[C@H](O)C(=O)N[C@@H]1C[C@H](N)[C@@H](O[C@H]2O[C@H](CN)CC[C@H]2N)[C@H](O)[C@H]1O[C@H]1O[C@H](CO)[C@@H](O)[C@H](N)[C@H]1O [Habekacin, reference compound] .
### Response 0.78
